assay: Critical micelle concentration by fluorescence staining with diphenylhexatriene (DPH)
Format: physicochemical
condition notes: aqueous solution
# CMC listing for each entry below

molecule	CMC
CCCCCCCCCCCC(CO[C@@H]1OC(CO)[C@@H](O[C@H]2OC(CO)[C@@H](O)C(O)C2O)C(O)C1O)(CO[C@@H]1OC(CO)[C@@H](O[C@H]2OC(CO)[C@@H](O)C(O)C2O)C(O)C1O)Cc1cccc(C[C@](CCCCCCCCCCC)(CO[C@@H]2OC(CO)[C@@H](O[C@H]3OC(CO)[C@@H](O)C(O)C3O)C(O)C2O)CO[C@@H]2OC(CO)[C@@H](O[C@@H]3OC(CO)[C@@H](O)C(O)C3O)C(O)C2O)c1 (stereo partly drawn) [M-XMA-C11]	~6.0 µM
CCCCCCCCCCCCC(CO[C@@H]1OC(CO)[C@@H](O[C@@H]2OC(CO)[C@@H](O)C(O)C2O)C(O)C1O)(CO[C@@H]1OC(CO)[C@@H](O[C@@H]2OC(CO)[C@@H](O)C(O)C2O)C(O)C1O)Cc1ccccc1CC(CCCCCCCCCCCC)(CO[C@@H]1OC(CO)[C@@H](O[C@@H]2OC(CO)[C@@H](O)C(O)C2O)C(O)C1O)CO[C@@H]1OC(CO)[C@@H](O[C@@H]2OC(CO)[C@@H](O)C(O)C2O)C(O)C1O (stereo partly drawn) [O-XMA-C12]	~6.0 µM
CCCCCCCCCCCCC(CO[C@@H]1OC(CO)[C@@H](O[C@H]2OC(CO)[C@@H](O)C(O)C2O)C(O)C1O)(CO[C@@H]1OC(CO)[C@@H](O[C@H]2OC(CO)[C@@H](O)C(O)C2O)C(O)C1O)Cc1ccc(CC(CCCCCCCCCCCC)(CO[C@@H]2OC(CO)[C@@H](O[C@H]3OC(CO)[C@@H](O)C(O)C3O)C(O)C2O)CO[C@@H]2OC(CO)[C@@H](O[C@H]3OC(CO)[C@@H](O)C(O)C3O)C(O)C2O)cc1 (stereo partly drawn) [P-XMA-C12]	~1 µM
